molecular target: Adenosine receptor A3 (Mus musculus) (UniProt Q61618); assay: Positive allosteric modulation of full length mouse A3 adenosine receptor transfected in HEK293 cell membranes assessed as slow down of [125I]I-AB-MECA dissociation rate at 10 uM preincubated with radioligand for 3 hrs followed by NECA and compound addition and measured upto 180 mins by gamma counter method; details: Membrane, filed as positive allosteric modulator
Sequence (Q61618 whole entry): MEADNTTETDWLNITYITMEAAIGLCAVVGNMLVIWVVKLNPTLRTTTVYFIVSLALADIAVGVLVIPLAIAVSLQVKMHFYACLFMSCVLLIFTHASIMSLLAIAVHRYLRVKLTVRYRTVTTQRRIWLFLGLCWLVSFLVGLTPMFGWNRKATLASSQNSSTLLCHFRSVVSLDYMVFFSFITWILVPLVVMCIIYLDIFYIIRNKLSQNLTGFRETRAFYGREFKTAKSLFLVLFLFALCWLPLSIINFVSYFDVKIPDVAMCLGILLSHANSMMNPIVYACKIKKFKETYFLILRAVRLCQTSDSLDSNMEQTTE
Active and inactive are the calls of the source. The calls are words filed in the database; no cut-off is given here.
ENDPOINT_NAME: Activity

A selection of reference data follows.
Q) Return Activity for the following compound: CCCC(CCC)c1nc2c(Nc3ccc(C#CCCCCN)cc3)nc3ccccc3c2[nH]1
A) Active

Q) Complete the entry with Activity for CCCC(CCC)c1nc2c(Nc3ccc(C#CCCCCCCCN)cc3)nc3ccccc3c2[nH]1
A) Active

Q) Give the value of Activity reported for the following: CCCC(CCC)c1nc2c(Nc3ccc(C#CCCCCCCN)cc3)nc3ccccc3c2[nH]1
A) Active

Q) Consider the compound CCCC(CCC)c1nc2c(Nc3ccc(C#CCCN)cc3)nc3ccccc3c2[nH]1 . State its measured Activity.
A) Active

Q) Dear colleague, please send me the reported Activity for CCCC(CCC)c1nc2c(Nc3ccc(C#CCCCCCCCCCN)cc3)nc3ccccc3c2[nH]1 when you can.
A) Active

Q) Specify Activity for CCCC(CCC)c1nc2c(Nc3ccc(C#CCCCCCN)cc3)nc3ccccc3c2[nH]1 and stop.
A) Active

Further cases:
Q) Consider the compound CCCC(CCC)c1nc2c(Nc3ccc(C#CCCCN)cc3)nc3ccccc3c2[nH]1 and give its recorded Activity.
A) Active

Q) Name the recorded Activity of the item CCCC(CCC)c1nc2c(Nc3ccc(C#CCN)cc3)nc3ccccc3c2[nH]1 in your answer.
A) Active

Q) Fill in reported Activity for this entry: CCCC(CCC)c1nc2c(Nc3cccc(C#CCCCCCCCCN)c3)nc3ccccc3c2[nH]1
A) Active

Q) Query Activity for CCCC(CCC)c1nc2c([nH]1)c(Nc1ccc(C#CCCCCCCCCCCN)cc1)nc1ccccc12
A) Active

Q) Query Activity for CCCC(CCC)c1nc2c(Nc3ccc(I)cc3)nc3ccccc3c2[nH]1
A) Active
